# experimentDescription: in vitro
# Type: in vitro ADME
# conditionSet: bovine, serum
# Procedure: To assess serum stability, the peptides (0.5 mg) were dissolved in 4 mL of 25% (v/v) fetal bovine serum (FBS) in PBS and incubated at 37 °C. […] All samples were analyzed using the Waters Alliance e2695 system with Waters Acquity QDa Detector (software–Empower®3). […] The percentage of peptide remaining intact was calculated from peak areas of samples at t0 and after 6 h of incubation in serum (the % of remaining peptide = peak area after 6 h/peak area at t0). […]
Where a SMILES comes first, the peptide text is derived from it.
Measured remaining at 6 h, 0.125 mg/mL, listed per entry.
attributeMeasured: remaining at 6 h, 0.125 mg/mL (%)

compound: CC[C@H](C)[C@H](NC(=O)[C@H](CCCCN)NC(=O)[C@H](CCCCN)NC(=O)[C@@H](NC(=O)[C@@H](NC(=O)[C@H](CC(=O)O)NC(=O)[C@H](Cc1ccccc1)NC(=O)[C@H](CC(C)C)NC(=O)CN)[C@@H](C)CC)[C@@H](C)CC)C(=O)N[C@@H](C)C(=O)N[C@@H](CCC(=O)O)C(=O)N[C@@H](CO)C(=O)N[C@@H](Cc1ccccc1)C(N)=O [aurein 1.2] (H-GLFDIIKKIAESF-NH2)
attributeMeasured: remaining at 6 h, 0.125 mg/mL
unit: %
recordedValue: 65
--
compound: CC[C@H](C)[C@H](NC(=O)[C@H](CCCCN)NC(=O)[C@H](CCCCN)NC(=O)[C@@H](NC(=O)[C@@H](NC(=O)[C@H](CC(=O)O)NC(=O)[C@H](C)NC(=O)[C@H](CC(C)C)NC(=O)CN)[C@@H](C)CC)[C@@H](C)CC)C(=O)N[C@@H](C)C(=O)N[C@@H](CCC(=O)O)C(=O)N[C@@H](CO)C(=O)N[C@@H](Cc1ccccc1)C(N)=O [Peptide F3A] (H-GLADIIKKIAESF-NH2)
attributeMeasured: remaining at 6 h, 0.125 mg/mL
unit: %
recordedValue: 38
--
compound: CC[C@H](C)[C@H](NC(=O)[C@H](CCCCN)NC(=O)[C@H](CCCCN)NC(=O)[C@@H](NC(=O)[C@@H](NC(=O)[C@H](CC(=O)O)NC(=O)[C@H](Cc1ccccc1)NC(=O)[C@H](CC(C)C)NC(=O)[C@H](C)N)[C@@H](C)CC)[C@@H](C)CC)C(=O)N[C@@H](C)C(=O)N[C@@H](CCC(=O)O)C(=O)N[C@@H](CO)C(=O)N[C@@H](Cc1ccccc1)C(N)=O [Peptide G1A] (H-ALFDIIKKIAESF-NH2)
attributeMeasured: remaining at 6 h, 0.125 mg/mL
unit: %
recordedValue: 16
--
compound: CC[C@H](C)[C@H](NC(=O)[C@H](CC(=O)O)NC(=O)[C@H](Cc1ccccc1)NC(=O)[C@H](CC(C)C)NC(=O)CN)C(=O)N[C@H](C(=O)N[C@@H](CCCCN)C(=O)N[C@@H](CCCCN)C(=O)N[C@@H](C)C(=O)N[C@@H](C)C(=O)N[C@@H](CCC(=O)O)C(=O)N[C@@H](CO)C(=O)N[C@@H](Cc1ccccc1)C(N)=O)[C@@H](C)CC [Peptide I9A] (H-GLFDIIKKAAESF-NH2)
attributeMeasured: remaining at 6 h, 0.125 mg/mL
unit: %
recordedValue: 6
